Listed molecules paired with reported melting point

[
  {
    "molecule": "CCN(CC)CC(O)CNC(=O)c1c(OC)c2cc(C)ccc2n1-c1ccccc1 (stereo not given)",
    "melting point": "126 to 128 °C"
  },
  {
    "molecule": "Cc1ccccc1-c1ccc(C(=O)N2Cc3ccc(C(=O)NCCc4ccc(O)cc4)n3Cc3ccccc32)cc1C",
    "melting point": "129 to 131 °C"
  },
  {
    "molecule": "Cc1[nH]ncc1C(=O)O",
    "melting point": "223 °C"
  },
  {
    "molecule": "CN(CCO)c1cc(C(c2cc(F)ccc2F)S(=O)(=O)c2ccc(Cl)cc2)c(Cl)cn1 (stereo not given)",
    "melting point": "88 to 89 °C"
  },
  {
    "molecule": "Cc1ccc(Cl)c(Nc2ccccc2C(=O)NN)c1Cl",
    "melting point": "158 to 160 °C"
  },
  {
    "molecule": "O=C1SCC(O)=C1Cc1ccc2ccccc2c1Br",
    "melting point": "205 to 206 °C"
  },
  {
    "molecule": "Clc1cccc(Cl)c1Cn1c(-c2ccc3c(c2)OCO3)nc2ccccc21",
    "melting point": "187 to 189 °C"
  },
  {
    "molecule": "O=[N+]([O-])c1cc([N+](=O)[O-])c(N2CCSCC2)c(C(F)(F)F)c1",
    "melting point": "120 to 121 °C"
  },
  {
    "molecule": "COC(=O)CC(=O)/C=C/c1c(-c2ccc(F)cc2)n(C(C)C)c(=O)c2ccccc12",
    "melting point": "123 to 125 °C"
  },
  {
    "molecule": "O=C1c2cc(O)ccc2SCC1Cc1ccccc1 (stereo not given)",
    "melting point": "73 to 77 °C"
  }
]
